Test system: Zymoseptoria tritici
ASSAY SUMMARY: Test E: wheat leaf blotch, preventive spray on wheat seedlings
CONDITIONS USED: 10 ppm test solution; 100 = 100% disease control, 0 = no control relative to controls

{"MOLECULE": "CC(C)(C)C(O)(Cn1cncn1)C1=NOC(CCOc2ccc(F)cc2)C1 (single isomer, unassigned) [Compound 270]", "Test E disease control rating [%]": 75}
{"MOLECULE": "OC(Cn1cncn1)(C1=NOC(COc2ccc(Cl)cc2)C1)C1CCCCC1 (single isomer, unassigned) [Compound 266]", "Test E disease control rating [%]": 0}
{"MOLECULE": "CC1(COc2ccc(Cl)cc2)CC(C(O)(Cn2cncn2)c2ccc(Cl)cc2)=NO1 (single isomer, unassigned) [Compound 219]", "Test E disease control rating [%]": 0}
{"MOLECULE": "Cc1ccc(OCC2CC(C(O)(Cn3cncn3)C(C)(C)C)=NO2)cc1 (single isomer, unassigned) [Compound 235]", "Test E disease control rating [%]": 8}
{"MOLECULE": "CC(C)(C)C(O)(Cn1cncn1)C1=NOC(COc2ccc(-c3ccccc3)cc2)C1 (single isomer, unassigned) [Compound 228]", "Test E disease control rating [%]": 12}
{"MOLECULE": "CC(C)(C)CC(O)(Cn1cncn1)C1=NOC(COc2ccc(C(F)(F)F)cc2)C1 (single isomer, unassigned) [Compound 241]", "Test E disease control rating [%]": 0}
